# subject.of.test: BCRP/ABCG2 (Homo sapiens)
# experiment.summary: BCRP-mediated mitoxantrone efflux inhibition, ABCG2-transfected HEK293 cells, flow cytometry
# measurement.setup: human, probe mitoxantrone (MX), 4 μM
Kind request: treat 80% as inclusive, so inhibition at 30 min, 1 µM at 80% or higher is yes, anything lower is no.

1) COC(=O)[C@H](Cc1c[nH]c2ccccc12)NC(=O)c1cc(=O)c2c(OCc3ccccc3Br)cccc2o1 [5g (series 1)] :: yes
2) COC(=O)[C@@H](NC(=O)c1cc(=O)c2c(OCc3ccccc3Br)cccc2o1)C(C)C [5d (series 1)] :: yes
3) CC[C@@H](C)[C@H](NC(=O)c1cc(=O)c2c(OCc3ccc(Br)cc3)cccc2o1)C(=O)N[C@H](C(=O)OC)C(C)C [7c (series 2)] :: no
4) CC[C@@H](C)[C@H](NC(=O)c1cc(=O)c2c(OCc3ccc(Br)cc3)cccc2o1)C(=O)N[C@@H](CC(C)C)C(=O)OC [7d (series 2)] :: no
5) COC(=O)[C@@H](Cc1c[nH]c2ccccc12)NC(=O)c1cc(=O)c2c(OCc3ccc(Br)cc3)cccc2o1 [5i (series 1)] :: yes

Quick check, inhibition at 30 min, 1 µM >= 80%? CC[C@@H](C)[C@H](NC(=O)c1cc(=O)c2c(OCc3ccccc3Br)cccc2o1)C(=O)N[C@@H](CC(C)C)C(=O)OC [7b (series 2)]
yes

* * *

# subject.of.test: MRP1 (ABCC1) (Homo sapiens)
# Construct: expressed in transfected cells; host or cells: Flp-In 293
# Sequence (P33527 whole entry): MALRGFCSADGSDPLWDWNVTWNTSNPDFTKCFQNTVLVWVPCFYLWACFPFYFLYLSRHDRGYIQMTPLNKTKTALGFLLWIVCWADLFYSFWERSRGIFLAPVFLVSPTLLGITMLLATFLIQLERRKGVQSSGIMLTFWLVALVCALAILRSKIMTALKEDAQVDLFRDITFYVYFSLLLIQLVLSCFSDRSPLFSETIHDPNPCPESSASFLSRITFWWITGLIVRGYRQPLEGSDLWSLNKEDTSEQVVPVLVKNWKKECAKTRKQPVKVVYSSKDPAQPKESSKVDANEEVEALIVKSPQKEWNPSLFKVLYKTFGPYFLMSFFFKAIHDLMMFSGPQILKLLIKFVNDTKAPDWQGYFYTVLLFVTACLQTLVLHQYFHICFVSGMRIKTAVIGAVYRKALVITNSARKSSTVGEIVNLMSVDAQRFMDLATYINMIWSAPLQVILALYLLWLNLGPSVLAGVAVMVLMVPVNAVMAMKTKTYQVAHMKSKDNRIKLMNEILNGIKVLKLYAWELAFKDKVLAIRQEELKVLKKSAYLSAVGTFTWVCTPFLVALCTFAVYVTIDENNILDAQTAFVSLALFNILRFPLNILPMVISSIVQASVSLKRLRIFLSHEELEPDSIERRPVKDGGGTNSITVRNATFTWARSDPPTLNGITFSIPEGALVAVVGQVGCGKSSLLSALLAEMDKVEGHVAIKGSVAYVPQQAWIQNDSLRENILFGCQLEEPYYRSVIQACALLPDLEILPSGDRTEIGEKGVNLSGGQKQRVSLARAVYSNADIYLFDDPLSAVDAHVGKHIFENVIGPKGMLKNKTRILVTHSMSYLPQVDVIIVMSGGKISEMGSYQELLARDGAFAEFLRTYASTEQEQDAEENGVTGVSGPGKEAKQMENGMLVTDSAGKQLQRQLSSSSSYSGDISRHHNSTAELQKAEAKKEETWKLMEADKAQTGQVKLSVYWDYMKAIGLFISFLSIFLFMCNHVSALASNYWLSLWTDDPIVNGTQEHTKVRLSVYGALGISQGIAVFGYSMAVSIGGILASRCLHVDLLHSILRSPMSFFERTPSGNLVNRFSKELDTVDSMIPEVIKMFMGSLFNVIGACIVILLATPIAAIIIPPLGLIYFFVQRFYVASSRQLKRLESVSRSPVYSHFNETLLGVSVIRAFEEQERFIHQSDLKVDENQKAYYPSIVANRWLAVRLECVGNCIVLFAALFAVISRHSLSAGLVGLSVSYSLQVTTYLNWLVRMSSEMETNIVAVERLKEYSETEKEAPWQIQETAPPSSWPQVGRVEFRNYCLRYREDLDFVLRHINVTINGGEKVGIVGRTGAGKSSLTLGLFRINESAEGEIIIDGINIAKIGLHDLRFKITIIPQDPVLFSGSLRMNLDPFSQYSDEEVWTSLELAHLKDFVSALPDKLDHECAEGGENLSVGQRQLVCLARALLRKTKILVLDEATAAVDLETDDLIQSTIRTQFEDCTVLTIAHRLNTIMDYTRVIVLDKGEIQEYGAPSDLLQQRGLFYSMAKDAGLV
# experiment.summary: MRP1-mediated calcein-AM efflux inhibition (selectivity assay), ABCC1-transfected Flp-In 293 cells
# Format: cell-based
# measurement.setup: probe calcein-AM (cAM), [Inhibitor] 10 μM, 0.2 μM cAM
measurement.kind: inhibition at 30 min, 10 μM (%)
The reply should be a number in %, with the unit left off.

// worked examples, inhibition at 30 min, 10 μM included
1) CC[C@@H](C)[C@H](NC(=O)c1cc(=O)c2c(OCc3ccc(Br)cc3)cccc2o1)C(=O)O [6b (series 1)] :: 20.6
2) CC[C@@H](C)[C@H](NC(=O)c1cc(=O)c2c(OCc3ccc(Br)cc3)cccc2o1)C(=O)N[C@@H](CC(C)C)C(=O)OC [7d (series 2)] :: 14.7
3) COC(=O)[C@H](Cc1ccccc1)NC(=O)c1cc(=O)c2c(OCc3ccc(Br)cc3)cccc2o1 [5f (series 1)] :: 19

In the following, a different compound is considered.
inhibition at 30 min, 10 μM in this record for COC(=O)[C@@H](NC(=O)c1cc(=O)c2c(OCc3ccccc3Br)cccc2o1)C(C)C [5d (series 1)] : 17.8

* * *

This listing pairs compounds with measured inhibition at 30 min, 10 μM.
# subject.of.test: BCRP/ABCG2 (Homo sapiens)
# Sequence (Q9UNQ0 1-655): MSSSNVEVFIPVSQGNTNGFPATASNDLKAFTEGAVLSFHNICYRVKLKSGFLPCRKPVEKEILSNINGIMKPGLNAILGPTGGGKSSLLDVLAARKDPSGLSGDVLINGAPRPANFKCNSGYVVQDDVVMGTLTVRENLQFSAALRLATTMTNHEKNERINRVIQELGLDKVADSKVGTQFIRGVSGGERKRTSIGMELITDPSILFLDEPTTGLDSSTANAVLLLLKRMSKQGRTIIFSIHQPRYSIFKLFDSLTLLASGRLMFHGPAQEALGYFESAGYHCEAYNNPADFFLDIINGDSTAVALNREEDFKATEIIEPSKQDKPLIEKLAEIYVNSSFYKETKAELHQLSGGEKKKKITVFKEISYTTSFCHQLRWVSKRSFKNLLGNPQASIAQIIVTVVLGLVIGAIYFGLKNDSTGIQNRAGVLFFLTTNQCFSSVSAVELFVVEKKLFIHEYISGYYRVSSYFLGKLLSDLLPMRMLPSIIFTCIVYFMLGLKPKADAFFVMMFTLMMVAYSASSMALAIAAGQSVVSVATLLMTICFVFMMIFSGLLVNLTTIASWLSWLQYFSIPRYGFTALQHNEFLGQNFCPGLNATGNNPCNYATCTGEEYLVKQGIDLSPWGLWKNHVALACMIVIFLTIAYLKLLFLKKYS
# experiment.summary: BCRP-mediated mitoxantrone efflux inhibition, ABCG2-transfected HEK293 cells, flow cytometry
# measurement.setup: human, probe mitoxantrone (MX), 4 μM
Respond with the bare value in %.

For orientation, consider the following solved cases.
1. COC(=O)[C@H](CC(C)C)NC(=O)c1cc(=O)c2c(OCc3ccccc3Br)cccc2o1 [5c (series 1)] :: 102
2. COC(=O)[C@@H](Cc1c[nH]c2ccccc12)NC(=O)c1cc(=O)c2c(OCc3ccc(Br)cc3)cccc2o1 [5i (series 1)] :: 96.3
3. CCC(C)[C@H](NC(=O)c1cc(=O)c2c(OCc3ccc(Br)cc3)cccc2o1)C(=O)OC (stereo partly shown) [5b (series 1)] :: 115

For the compound O=C(N[C@@H](Cc1ccccc1)C(=O)O)c1cc(=O)c2c(OCc3ccc(Br)cc3)cccc2o1 [6d (series 1)] , the measured inhibition at 30 min, 10 μM on BCRP/ABCG2 (Homo sapiens) was 6.5

Just for reference, patent US20220267289A1 is where these values come from.
